# Tested on: T-cell
# testMethodNotes: Anti-inflammatory activity in Homo sapiens (human) T lymphocytes assessed as inhibition of PHA-induced [3H] thymidine uptake at 50 ug/ml incubated for 72 hr prior to [3H]thymidine addition measured after 18 hr by liquid scintillation method
# Assay type: functional
Reported inhibition at 50 µg/mL values follow for various molecules
# value in %; strip the unit string

Here is how some molecules turned out for inhibition at 50 µg/mL.
COc1c(N2CCN(C(=O)c3ccccc3)C(C)C2)c(F)cc2c(=O)c(C(=O)O)cn(C3CC3)c12.O (centres undefined)    -6.9
COc1c(N2CCNC(C)C2)c(F)cc2c(=O)c(C(=O)O)cn(C3CC3)c12 (centres undefined) [GATIFLOXACIN]    -25.2
CCCCCCCC(=O)N1CCN(c2c(F)cc3c(=O)c(C(=O)O)cn(C4CC4)c3c2OC)CC1C.O (centres undefined)    -6.9

Then there is this molecule:
Any idea what inhibition at 50 µg/mL came out for COc1c(N2CCN(C(C)=O)C(C)C2)c(F)cc2c(=O)c(C(=O)O)cn(C3CC3)c12.O (centres undefined) on T-cell?
-52.3
